- ASSAYED_SYSTEM: P-glycoprotein (P-gp) (Homo sapiens, UniProt P08183)
- Construct: the P-gp transporter expressed on Caco-2 cell monolayers; endogenous in cells
- Sequence (P08183 whole entry): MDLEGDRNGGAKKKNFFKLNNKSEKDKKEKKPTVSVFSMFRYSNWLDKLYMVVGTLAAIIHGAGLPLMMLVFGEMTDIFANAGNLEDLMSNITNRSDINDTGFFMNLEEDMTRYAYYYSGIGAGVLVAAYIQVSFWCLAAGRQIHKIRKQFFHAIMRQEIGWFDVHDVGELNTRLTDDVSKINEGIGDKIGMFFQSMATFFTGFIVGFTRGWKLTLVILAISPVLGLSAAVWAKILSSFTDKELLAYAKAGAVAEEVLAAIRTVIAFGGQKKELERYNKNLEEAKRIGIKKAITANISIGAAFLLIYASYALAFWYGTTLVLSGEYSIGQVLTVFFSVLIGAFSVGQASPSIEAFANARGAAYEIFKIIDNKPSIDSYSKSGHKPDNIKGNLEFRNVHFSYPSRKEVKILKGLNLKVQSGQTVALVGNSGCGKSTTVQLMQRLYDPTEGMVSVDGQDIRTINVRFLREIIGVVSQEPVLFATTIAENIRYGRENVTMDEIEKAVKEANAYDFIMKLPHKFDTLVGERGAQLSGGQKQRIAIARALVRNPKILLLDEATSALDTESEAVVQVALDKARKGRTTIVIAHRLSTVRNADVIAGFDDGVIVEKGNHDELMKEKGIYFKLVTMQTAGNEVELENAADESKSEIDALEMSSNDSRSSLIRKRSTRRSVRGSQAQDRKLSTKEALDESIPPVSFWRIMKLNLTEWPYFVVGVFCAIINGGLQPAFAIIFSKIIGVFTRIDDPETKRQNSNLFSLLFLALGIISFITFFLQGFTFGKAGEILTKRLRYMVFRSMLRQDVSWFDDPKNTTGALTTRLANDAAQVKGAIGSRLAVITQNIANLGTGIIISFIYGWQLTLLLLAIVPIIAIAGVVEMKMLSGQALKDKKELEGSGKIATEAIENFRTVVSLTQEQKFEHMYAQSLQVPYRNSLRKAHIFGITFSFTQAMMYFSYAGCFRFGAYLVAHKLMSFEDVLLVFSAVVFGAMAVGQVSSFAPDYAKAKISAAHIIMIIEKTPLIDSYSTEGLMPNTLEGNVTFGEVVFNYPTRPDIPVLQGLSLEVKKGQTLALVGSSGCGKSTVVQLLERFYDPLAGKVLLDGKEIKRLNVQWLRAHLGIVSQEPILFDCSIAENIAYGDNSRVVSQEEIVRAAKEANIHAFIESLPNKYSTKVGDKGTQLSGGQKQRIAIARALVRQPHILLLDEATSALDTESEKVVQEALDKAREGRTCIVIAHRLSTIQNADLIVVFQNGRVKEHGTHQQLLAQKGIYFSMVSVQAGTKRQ
- ASSAY_OVERVIEW: P-gp transporter inhibition
METRIC_NAME: IC50

COMPOUND: CCCO[C@H]1CC[C@H](N(C(=O)Nc2ncc(S(=O)(=O)CC(=O)O)s2)C2CCCCC2)CC1
ASSAYED_SYSTEM: P-glycoprotein (P-gp) (Homo sapiens, UniProt P08183)
IC50: ~205 µM

Problem: Param readout = IC50; param system = P-glycoprotein (P-gp) (Homo sapiens, UniProt P08183); param query = CCCO[C@H]1CC[C@H](N(C(=O)Nc2ncc([S+]([O-])CC(=O)O)s2)C2CCCCC2)CC1 (single isomer, unassigned) [Sulfoxide-1B] ; response: value
Result: > 212 µM

Problem: Item: CCCO[C@H]1CC[C@H](N(C(=O)Nc2ncc([S+]([O-])CC(=O)O)s2)C2CCCCC2)CC1 (relative stereo) [Sulfoxide-1]
Result: ~212 µM

Problem: Try this compound next: CCCO[C@H]1CC[C@H](N(C(=O)Nc2ncc(SCC(=O)O)s2)C2CCCCC2)CC1 [SM-1, reference compound]
Result: 115 µM

Problem: Same question, CCCO[C@H]1CC[C@H](N(C(=O)Nc2ncc([S+]([O-])CC(=O)O)s2)C2CCCCC2)CC1 (single isomer, unassigned) [Sulfoxide-1A] this time
Result: ~138 µM
